Test system: CCRIS mutagenicity, Ames/micronucleus/aberration tests
test details: CCRIS mutagenicity studies
condition description: Test System: AMES SALMONELLA TYPHIMURIUM; Strain/Indicator: TA100; Metabolic Activation: HAMSTER, LIVER, S-9, AROCLOR 1254; Method: STANDARD PLATE
Activity calls are given as the source filed them. No rule for the calls is given here.
Possible outcomes: y (active), n (inactive)

molecule: C[n+]1cccc(C(=O)[O-])c1
label value: n
--
molecule: NC(=O)c1ccc(N)cc1
label value: n
--
molecule: CCOCOCC
label value: n
--
molecule: ON=C1CCCCC1
label value: n
--
molecule: CC(C)(C#N)C(C)(C)C#N
label value: n
--
molecule: Nc1nc2ccc([N+](=O)[O-])cc2s1
label value: y
--
molecule: CC(C)=CCC1=C(O)c2ccccc2C(=O)C1=O
label value: n
--
molecule: O=C(O)CN(CCN(CC(=O)O)CC(=O)O)CC(=O)O
label value: n
--
molecule: ClNc1nc(NCl)nc(NCl)n1
label value: n
--
molecule: CCCCCCCCCC/C=C/C1CC(=O)OC1=O (stereo not given)
label value: n
--
molecule: O=C(CCl)c1ccc(Cl)cc1Cl
label value: n
--
molecule: [O-]/[N+](=N\O)c1ccccc1
label value: n
--
molecule: CC1=CCC(C(C)(C)O)CC1 (stereo not given)
label value: n
--
molecule: CC(O)CCC(=O)c1ccoc1 (stereo not given)
label value: n
--
molecule: O=C(O)/C=C/c1ccc(O)c(O)c1
label value: n

----------
System: CCRIS mutagenicity, Ames/micronucleus/aberration tests
test details: CCRIS mutagenicity studies
condition description: Test System: AMES SALMONELLA TYPHIMURIUM; Strain/Indicator: TA100; Metabolic Activation: RAT, LIVER, MICROSOMES, PHENOBARBITAL; Method: PREINCUBATION
Calls of active or inactive are those of the source. No rule for the calls is given here.

compound: C\C=C(/C=C(C)/C=C(C)/C=C/C=C(\C)C(=O)[C@]12O[C@H]1[C@@](O)(CCO)NC2=O)C(=O)OC
measured on: CCRIS mutagenicity, Ames/micronucleus/aberration tests
mutagenic call: active; positive
//
compound: CCc1cccc(CC)c1N=O
measured on: CCRIS mutagenicity, Ames/micronucleus/aberration tests
mutagenic call: active; positive
//
compound: CC(Br)C(Br)COP(=O)(OCC(Br)C(C)Br)OCC(Br)C(C)Br (centres undefined)
measured on: CCRIS mutagenicity, Ames/micronucleus/aberration tests
mutagenic call: active; positive

----------
System: CCRIS mutagenicity, Ames/micronucleus/aberration tests
test details: CCRIS mutagenicity studies
condition description: Test System: AMES SALMONELLA TYPHIMURIUM; Strain/Indicator: TA98; Metabolic Activation: MOUSE, LIVER, S-9; Method: STANDARD PLATE
Activity calls are given as the source filed them. No rule for the calls is given here.
Classes used: true (1) (active), false (0) (inactive)

sample smiles: C=CCCCCCCCCC
label value: false (0)

sample smiles: C[C@]12CC[C@@H]3c4ccc(O)cc4CC[C@H]3[C@@H]1CC[C@@H]2O
label value: false (0)

sample smiles: C1O[C@@H]1[C@@H]1CO1
label value: false (0)

sample smiles: [O-]/[N+](=N\O)c1ccccc1
label value: false (0)

sample smiles: Nc1ccc(-c2ccc(N)c(Cl)c2)cc1Cl
label value: true (1)

sample smiles: CC[C@H]1OC(=O)[C@H](C)[C@@H](O[C@H]2C[C@@](C)(OC)[C@@H](O)[C@H](C)O2)[C@H](C)[C@@H](O[C@@H]2O[C@H](C)C[C@H](N(C)C)[C@H]2O)[C@](C)(O)C[C@@H](C)CN(C)[C@H](C)[C@@H](O)[C@]1(C)O
label value: false (0)

sample smiles: Cn1c(N)nc2ncc(-c3ccccc3)cc21
label value: true (1)

----------
System: CCRIS mutagenicity, Ames/micronucleus/aberration tests
test details: CCRIS mutagenicity studies
condition description: Test System: AMES SALMONELLA TYPHIMURIUM; Strain/Indicator: TA1538; Metabolic Activation: NONE; Method: PREINCUBATION
Source text: The CCRIS database contains chemical records with carcinogenicity, mutagenicity, tumor promotion, and tumor inhibition test results. It was developed by the National Cancer Institute (NCI). Data are derived from studies cited in primary journals, current awareness tools, NCI reports, and other sources. Test results have been reviewed by experts in carcinogenesis and mutagenesis. CCRIS provides historical information from the years 1985 - 2011. It is no longer updated. […]
The source made the active and inactive calls. The rule behind the calls is not given here.
Labels: true = active, false = inactive

compound: O=C(O)c1ccccc1Cl
label value: false

compound: C[Si](Cl)Cl
label value: false

compound: COC(=O)CC(C)=O
label value: false

compound: Cc1ccc(C(=O)c2cc(O)c(O)c([N+](=O)[O-])c2)cc1
label value: false

compound: O=C/C(Br)=C/c1ccccc1
label value: true

compound: CSC[C@H](NC(=O)C(C)(C)SC)C(=O)O
label value: false

compound: Fc1c(F)c(Cl)c(F)c(Cl)c1F
label value: false

compound: O=C1c2ccccc2C(=O)c2c1cc(O)c(CO)c2O
label value: true

compound: O=c1cn[nH]c(=O)[nH]1
label value: false

compound: O.O.O.O.O.O.O=[N+]([O-])O.O=[N+]([O-])O.[Zn]
label value: false

compound: O=C(O)C(F)(F)C(F)(Cl)C(F)(F)C(F)(Cl)C(F)(F)Cl (stereo not drawn)
label value: false

compound: O=C1c2cccc(O)c2C(=O)c2c(O)cc(CO)cc21
label value: true

compound: O=NN1CCCCC1
label value: false

compound: O=C(O)CCCCCCCCC(=O)O
label value: false

compound: CN1C(=O)CC[C@H]1c1cccnc1
label value: false

compound: C[Si]1(C)O[Si](C)(C)O[Si](C)(C)O[Si](C)(C)O1
label value: false

compound: COC(=O)Nc1cccc(OC(=O)Nc2cccc(C)c2)c1
label value: false

compound: COc1ccc(C=O)cc1
label value: false

----------
Tested on: CCRIS mutagenicity, Ames/micronucleus/aberration tests
test details: CCRIS mutagenicity studies
condition description: Test System: AMES SALMONELLA TYPHIMURIUM; Strain/Indicator: TA98; Metabolic Activation: NONE; Method: PREINCUBATION
Description: The CCRIS database contains chemical records with carcinogenicity, mutagenicity, tumor promotion, and tumor inhibition test results. It was developed by the National Cancer Institute (NCI). Data are derived from studies cited in primary journals, current awareness tools, NCI reports, and other sources. Test results have been reviewed by experts in carcinogenesis and mutagenesis. CCRIS provides historical information from the years 1985 - 2011. It is no longer updated. […]
Calls of active or inactive are those of the source. The rule behind the calls is not given here.

molecule: CCOC(=O)C1OC1c1ccccc1 (stereo not given)
mutagenic call: inactive; negative
--
molecule: CNC(=O)C=Cc1ccc([N+](=O)[O-])o1
mutagenic call: active; positive
--
molecule: Cc1ccc(S(=O)(=O)Oc2ccc(N=Nc3ccc(-c4ccc(N=Nc5c(O)ccc6cc(S(=O)(=O)O)cc(S(=O)(=O)O)c56)c(C)c4)cc3C)cc2)cc1
mutagenic call: inactive; negative
--
molecule: Nc1ccc(/C=C/c2ccc(N)c(S(=O)(=O)O)c2)c(S(=O)(=O)O)c1
mutagenic call: inactive; negative
--
molecule: CNc1ccc2nccnc2c1C
mutagenic call: inactive; negative
--
molecule: CC[C@]1(O)CC2CN(CCc3c([nH]c4ccccc34)[C@@](C(=O)OC)(c3cc4c(cc3OC)N(C=O)[C@H]3[C@@](O)(C(=O)OC)[C@H](OC(C)=O)[C@]5(CC)C=CCN6CC[C@]43[C@@H]65)C2)C1 (stereo not given in full)
mutagenic call: inactive; negative
--
molecule: C=CCC1(C(C)C#CCC)C(=O)N=C(O)N(C)C1=O (stereo not given)
mutagenic call: inactive; negative
--
molecule: CCNc1cccc(O)c1
mutagenic call: inactive; negative
--
molecule: O=C(OCc1cccc([N+](=O)[O-])c1)c1ccccc1
mutagenic call: inactive; negative
--
molecule: O=C(Cl)c1c(Cl)cccc1Cl
mutagenic call: active; positive

----------
Tested on: CCRIS mutagenicity, Ames/micronucleus/aberration tests
test details: CCRIS mutagenicity studies
condition description: Test System: AMES SALMONELLA TYPHIMURIUM; Strain/Indicator: TA1535; Metabolic Activation: RAT, LIVER, S-9, AROCLOR 1254 (10%); Method: STANDARD PLATE
The source made the active and inactive calls. How the calls were made is not given here.
readout name: mutagenic call

molecule: CCC1CCC(CCC(=O)[O-])C1.CCC1CCC(CCC(=O)[O-])CC1.[Cu+2] (centres undefined)
measured on: CCRIS mutagenicity, Ames/micronucleus/aberration tests
readout name: mutagenic call
value reported: inactive; negative
//
molecule: Nc1nc2c(ncn2[C@@H]2C=C[C@H](CO)C2)c(=O)[nH]1
measured on: CCRIS mutagenicity, Ames/micronucleus/aberration tests
readout name: mutagenic call
value reported: inactive; negative
//
molecule: CCCCCCCCCCCCCc1ccccc1
measured on: CCRIS mutagenicity, Ames/micronucleus/aberration tests
readout name: mutagenic call
value reported: inactive; negative
//
molecule: CC1CCC(C(C)C)C(OC(=O)c2ccccc2N)C1 (centres undefined)
measured on: CCRIS mutagenicity, Ames/micronucleus/aberration tests
readout name: mutagenic call
value reported: inactive; negative
